- Study system: αγ heterodimer of human NAD-IDH (Homo sapiens, UniProt P50213+P51553)
- Construct: E. coli BL21(DE3) Codon-Plus co-expression from pQlinkN-α-γ-tev-His6; C-terminal His6 of gamma cut with TEV protease; alpha 37 kDa, gamma 39 kDa; heterodimer
- Sequence (P50213 28-366): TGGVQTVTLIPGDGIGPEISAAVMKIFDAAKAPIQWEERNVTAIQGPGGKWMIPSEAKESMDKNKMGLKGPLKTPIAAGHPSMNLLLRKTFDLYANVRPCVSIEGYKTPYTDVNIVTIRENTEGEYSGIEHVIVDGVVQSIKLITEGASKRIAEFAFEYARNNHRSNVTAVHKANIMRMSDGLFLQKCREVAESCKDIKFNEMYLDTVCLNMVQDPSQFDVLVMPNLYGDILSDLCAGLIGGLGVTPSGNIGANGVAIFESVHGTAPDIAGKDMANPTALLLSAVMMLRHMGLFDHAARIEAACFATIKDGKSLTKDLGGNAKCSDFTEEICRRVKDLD
- Sequence (P51553 40-393): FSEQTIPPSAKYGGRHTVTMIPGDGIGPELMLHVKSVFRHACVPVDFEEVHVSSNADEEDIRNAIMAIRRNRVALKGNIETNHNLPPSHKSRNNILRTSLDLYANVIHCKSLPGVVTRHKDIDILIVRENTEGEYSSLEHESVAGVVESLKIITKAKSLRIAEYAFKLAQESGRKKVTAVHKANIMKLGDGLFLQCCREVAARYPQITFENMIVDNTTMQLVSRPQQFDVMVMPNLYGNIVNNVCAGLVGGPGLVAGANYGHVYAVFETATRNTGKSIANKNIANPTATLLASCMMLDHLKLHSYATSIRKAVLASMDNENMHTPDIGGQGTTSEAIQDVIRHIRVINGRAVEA
- Method: NADH formation at […] nm
Observation type: IC50
Please give the number followed by its unit.

Return reported IC50; argument: NC(=O)C1=CN([C@@H]2O[C@H](COP(=O)(O)OP(=O)(O)OC[C@H]3O[C@@H](n4cnc5c(N)ncnc54)[C@H](O)[C@@H]3O)[C@@H](O)[C@H]2O)C=CC1 [NADH] 82.7 µM

* * *

- Study system: αβ heterodimer of human NAD-IDH (Homo sapiens, UniProt P50213)
- Construct: gene IDH3A; alpha 37 kDa, beta 39 kDa; heterodimer
- Sequence (P50213 28-366): as the sequence (P50213 28-366) above
- Sequence (O43837 35-385 partner): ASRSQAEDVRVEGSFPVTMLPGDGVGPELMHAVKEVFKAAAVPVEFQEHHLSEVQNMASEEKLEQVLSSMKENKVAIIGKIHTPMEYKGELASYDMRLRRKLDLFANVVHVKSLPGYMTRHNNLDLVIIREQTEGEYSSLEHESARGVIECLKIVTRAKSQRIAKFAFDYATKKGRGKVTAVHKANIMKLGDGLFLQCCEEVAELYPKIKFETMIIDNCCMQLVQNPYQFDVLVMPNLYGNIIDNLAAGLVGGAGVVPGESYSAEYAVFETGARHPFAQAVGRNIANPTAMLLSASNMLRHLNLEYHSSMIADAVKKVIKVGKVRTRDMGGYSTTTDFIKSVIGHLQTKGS
- Method: ITC
- Format: binding
- Condition summary: 50 mM HEPES pH 7.4, 200 mM NaCl, 20 °C; single set of sites fit, n 1.26; read-out: K d (μ M) ^a
- Text: ITC on αβ heterodimer of human NAD-IDH
Observation type: Kd (µM)
Number in µM, nothing else.

Return reported Kd; argument: `NC(=O)C1=CN([C@@H]2O[C@H](COP(=O)(O)OP(=O)(O)OC[C@H]3O[C@@H](n4cnc5c(N)ncnc54)[C@H](O)[C@@H]3O)[C@@H](O)[C@H]2O)C=CC1` 4.6

* * *

- Study system: α2βγ heterotetramer of human NAD-IDH (Homo sapiens, UniProt P50213+P51553)
- Construct: gene IDH3A; alpha 37 kDa, beta 39 kDa, gamma 39 kDa
- Method: ITC
- Assay type: binding
- Condition summary: 50 mM HEPES pH 7.4, 200 mM NaCl, 20 °C; single set of sites fit, n 2.53; read-out: K d (μ M) ^a
Observation type: Kd (µM)
Number in µM, nothing else.

Return reported Kd; argument: `NC(=O)C1=CN([C@@H]2O[C@H](COP(=O)(O)OP(=O)(O)OC[C@H]3O[C@@H](n4cnc5c(N)ncnc54)[C@H](O)[C@@H]3O)[C@@H](O)[C@H]2O)C=CC1` 46.3

* * *

- Study system: αβ heterodimer of human NAD-IDH (Homo sapiens, UniProt P50213)
- Construct: gene IDH3A; alpha 37 kDa, beta 39 kDa; heterodimer
- Method: NADH formation at […] nm
- Format: biochemical
- Condition summary: 33 mM Tris-acetate pH 7.4, 20 mM DL-isocitrate, 1 mM NAD+, 25 °C
Observation type: IC50 (µM)
Number in µM, nothing else.

Return reported IC50; argument: `NC(=O)C1=CN([C@@H]2O[C@H](COP(=O)(O)OP(=O)(O)OC[C@H]3O[C@@H](n4cnc5c(N)ncnc54)[C@H](O)[C@@H]3O)[C@@H](O)[C@H]2O)C=CC1` 94.9

* * *

- Study system: α2βγ heterotetramer of human NAD-IDH (Homo sapiens, UniProt P50213+P51553)
- Construct: alpha 37 kDa, beta 39 kDa, gamma 39 kDa
- Method: NADH formation at […] nm
- Condition summary: 33 mM Tris-acetate pH 7.4, 2 mM MnCl2, 20 mM DL-isocitrate, 1 mM NAD+, 25 °C
Observation type: IC50 (µM)
Number in µM, nothing else.

Return reported IC50; argument: `NC(=O)C1=CN([C@@H]2O[C@H](COP(=O)(O)OP(=O)(O)OC[C@H]3O[C@@H](n4cnc5c(N)ncnc54)[C@H](O)[C@@H]3O)[C@@H](O)[C@H]2O)C=CC1` 78.5

* * *

- Study system: αβ heterodimer of human NAD-IDH (Homo sapiens, UniProt P50213)
- Construct: gene IDH3A; alpha 37 kDa, beta 39 kDa; heterodimer
- Method: ITC
- Format: binding
- Condition summary: 50 mM HEPES pH 7.4, 200 mM NaCl, 20 °C; no isocitrate; n 1.14; read-out: K d (μ M) ^a
Observation type: Kd

Return reported Kd; argument: NC(=O)c1ccc[n+]([C@@H]2O[C@H](COP(=O)(O)OP(=O)(O)OC[C@H]3O[C@@H](n4cnc5c(N)ncnc54)[C@H](O)[C@@H]3O)[C@@H](O)[C@H]2O)c1 [NAD^+] 268 µM
